assaySystem: T1, human IL-23 (human, UniProt P29460 23-328; Q9NPF7 20-189)
T1 construct: Secreted from Sf9 cells for the crystal structure; One molecule is used for all three; also called Interleukin-23
T1 sequence (looked up) 1: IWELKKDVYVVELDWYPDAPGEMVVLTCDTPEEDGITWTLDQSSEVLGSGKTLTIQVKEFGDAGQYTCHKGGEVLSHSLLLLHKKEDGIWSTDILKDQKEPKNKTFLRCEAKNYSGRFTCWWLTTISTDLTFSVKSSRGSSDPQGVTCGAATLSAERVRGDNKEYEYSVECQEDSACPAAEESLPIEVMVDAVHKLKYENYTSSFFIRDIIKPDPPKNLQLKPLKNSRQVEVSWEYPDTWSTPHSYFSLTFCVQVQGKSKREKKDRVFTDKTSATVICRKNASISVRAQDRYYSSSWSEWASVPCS
T1 sequence (looked up) 2: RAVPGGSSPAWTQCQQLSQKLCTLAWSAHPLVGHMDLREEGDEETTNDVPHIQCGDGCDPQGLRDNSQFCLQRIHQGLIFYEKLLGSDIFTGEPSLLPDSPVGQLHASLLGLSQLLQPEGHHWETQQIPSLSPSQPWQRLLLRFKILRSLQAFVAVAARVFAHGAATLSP
procedureDetails: competition ELISA: Adnectin + 1 nM IL-23 on coated IL-23R-Fc
Please respond with reported log10 IC50 for every item in the list.
Plainly stated, the numbers are log10 of IC50 given in nM.

The reported value for Adnectin 2 T35→N (designed binder) MGVSDVPRDLEVVAATPTSLLISWEHDYPYRRYYRINYGETGGNSPVQEFTVPKDVDTATISGLKPGVDYTITVYAVTSSYKYDMQYSPISINYRTEIDKPSQHHHHHH in terms of log10 IC50 is 0.23

The reported value for Adnectin 2 V75→Y (designed binder) MGVSDVPRDLEVVAATPTSLLISWEHDYPYRRYYRITYGETGGNSPVQEFTVPKDVDTATISGLKPGVDYTITVYAYTSSYKYDMQYSPISINYRTEIDKPSQHHHHHH in terms of log10 IC50 is 0.34

The reported value for Adnectin 2 T35→D (designed binder) MGVSDVPRDLEVVAATPTSLLISWEHDYPYRRYYRIDYGETGGNSPVQEFTVPKDVDTATISGLKPGVDYTITVYAVTSSYKYDMQYSPISINYRTEIDKPSQHHHHHH in terms of log10 IC50 is 1.69

The reported value for Adnectin 2 Y73→A (designed binder) MGVSDVPRDLEVVAATPTSLLISWEHDYPYRRYYRITYGETGGNSPVQEFTVPKDVDTATISGLKPGVDYTITVAAVTSSYKYDMQYSPISINYRTEIDKPSQHHHHHH in terms of log10 IC50 is -0.19

The reported value for Adnectin 2 P87→A (designed binder) MGVSDVPRDLEVVAATPTSLLISWEHDYPYRRYYRITYGETGGNSPVQEFTVPKDVDTATISGLKPGVDYTITVYAVTSSYKYDMQYSAISINYRTEIDKPSQHHHHHH in terms of log10 IC50 is 0.92

The reported value for Adnectin 2 (designed binder, also called anti-IL-23 Adnectin; ATI-000929) MGVSDVPRDLEVVAATPTSLLISWEHDYPYRRYYRITYGETGGNSPVQEFTVPKDVDTATISGLKPGVDYTITVYAVTSSYKYDMQYSPISINYRTEIDKPSQHHHHHH in terms of log10 IC50 is 0.00

The reported value for Adnectin 2 Y28→A (designed binder) MGVSDVPRDLEVVAATPTSLLISWEHDYPARRYYRITYGETGGNSPVQEFTVPKDVDTATISGLKPGVDYTITVYAVTSSYKYDMQYSPISINYRTEIDKPSQHHHHHH in terms of log10 IC50 is 1.11

The reported value for Adnectin 2 Y73→N (designed binder) MGVSDVPRDLEVVAATPTSLLISWEHDYPYRRYYRITYGETGGNSPVQEFTVPKDVDTATISGLKPGVDYTITVNAVTSSYKYDMQYSPISINYRTEIDKPSQHHHHHH in terms of log10 IC50 is 0.08

The reported value for Adnectin 2 V45→N (designed binder) MGVSDVPRDLEVVAATPTSLLISWEHDYPYRRYYRITYGETGGNSPNQEFTVPKDVDTATISGLKPGVDYTITVYAVTSSYKYDMQYSPISINYRTEIDKPSQHHHHHH in terms of log10 IC50 is -0.27

The reported value for Adnectin 2 V45→E (designed binder) MGVSDVPRDLEVVAATPTSLLISWEHDYPYRRYYRITYGETGGNSPEQEFTVPKDVDTATISGLKPGVDYTITVYAVTSSYKYDMQYSPISINYRTEIDKPSQHHHHHH in terms of log10 IC50 is -0.29

The reported value for Adnectin 2 V75→Q (designed binder) MGVSDVPRDLEVVAATPTSLLISWEHDYPYRRYYRITYGETGGNSPVQEFTVPKDVDTATISGLKPGVDYTITVYAQTSSYKYDMQYSPISINYRTEIDKPSQHHHHHH in terms of log10 IC50 is 0.36

The reported value for Adnectin 2 T35→E (designed binder) MGVSDVPRDLEVVAATPTSLLISWEHDYPYRRYYRIEYGETGGNSPVQEFTVPKDVDTATISGLKPGVDYTITVYAVTSSYKYDMQYSPISINYRTEIDKPSQHHHHHH in terms of log10 IC50 is -0.22

The reported value for Adnectin 2 V75→K (designed binder) MGVSDVPRDLEVVAATPTSLLISWEHDYPYRRYYRITYGETGGNSPVQEFTVPKDVDTATISGLKPGVDYTITVYAKTSSYKYDMQYSPISINYRTEIDKPSQHHHHHH in terms of log10 IC50 is 0.76

The reported value for Adnectin 2 Y73→R (designed binder) MGVSDVPRDLEVVAATPTSLLISWEHDYPYRRYYRITYGETGGNSPVQEFTVPKDVDTATISGLKPGVDYTITVRAVTSSYKYDMQYSPISINYRTEIDKPSQHHHHHH in terms of log10 IC50 is 0.08

The reported value for Adnectin 2 V45→D (designed binder) MGVSDVPRDLEVVAATPTSLLISWEHDYPYRRYYRITYGETGGNSPDQEFTVPKDVDTATISGLKPGVDYTITVYAVTSSYKYDMQYSPISINYRTEIDKPSQHHHHHH in terms of log10 IC50 is -0.08
